Origin of values: patent US12365655B2

target: TIP60-KAT5 (Homo sapiens, UniProt Q92993)
Sequence (Q92993 with tags, fused parts or gaps isoform Q92993-2): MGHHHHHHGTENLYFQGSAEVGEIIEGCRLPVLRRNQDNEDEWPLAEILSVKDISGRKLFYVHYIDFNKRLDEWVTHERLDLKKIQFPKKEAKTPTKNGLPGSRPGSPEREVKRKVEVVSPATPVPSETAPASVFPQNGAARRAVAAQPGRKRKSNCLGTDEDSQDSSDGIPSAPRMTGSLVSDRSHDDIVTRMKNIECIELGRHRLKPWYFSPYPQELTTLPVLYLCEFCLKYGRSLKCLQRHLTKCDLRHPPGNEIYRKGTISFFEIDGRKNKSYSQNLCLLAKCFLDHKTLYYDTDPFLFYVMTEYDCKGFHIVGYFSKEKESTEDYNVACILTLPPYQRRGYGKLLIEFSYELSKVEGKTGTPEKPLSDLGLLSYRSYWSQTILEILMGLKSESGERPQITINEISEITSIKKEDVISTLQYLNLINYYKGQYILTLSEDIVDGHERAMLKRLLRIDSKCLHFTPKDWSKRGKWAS
measured_quantity: pIC50
# log scale: pIC50 equals minus log10 of the concentration in mol/L

COc1ccc(F)cc1S(=O)(=O)Nc1noc2cccc(Cl)c12 [Example 5]	3.94
COCc1cc(OC)c2c(NS(=O)(=O)c3ccc(OC)c4cccnc34)noc2c1 [Example 162]	4.86
COc1cc2c(c(OC)c1S(=O)(=O)Nc1noc3cccc(OC)c13)CCC2 [Example 106]	4.85
CCc1cc(S(=O)(=O)Nc2noc3cccc(Cl)c23)c(=O)n(C)c1 [Example 107]	4.13
COc1ccc(C(C)C)cc1S(=O)(=O)Nc1noc2cccc(Cl)c12 [Example 41]	4.19
COc1cc(-c2ccccc2)cc(OC)c1S(=O)(=O)Nc1noc2cccc(OC)c12 [Example 95]	4.85
CCc1ccc(OC)c(S(=O)(=O)Nc2noc3ccc(Cl)cc23)c1 [Example 150]	4.30
COc1cccc(OC)c1S(=O)(=O)Nc1noc2cc(-c3cccc(O)c3)cc(OC)c12 [Example 92]	5.86

Query :: Entry Cc1ncc(-c2ccc(C)c(S(=O)(=O)Nc3noc4cccc(Cl)c34)c2)o1 [Example 18] has what pIC50?
Result :: 3.93

Query :: May I ask what pIC50 has been recorded for CCc1ccc(OC)c(S(=O)(=O)Nc2noc3cc(Br)ccc23)c1 [Example 138] ?
Result :: 5.29

###

Let's look at some compounds and their measured IC50.
target: MOZ-KAT6A (Homo sapiens, UniProt Q92794, A567V); assay: Acetyltransferase biochemical assay (AlphaScreen), KAT6A
Sequence (Q92794 with tags, fused parts or gaps A567V): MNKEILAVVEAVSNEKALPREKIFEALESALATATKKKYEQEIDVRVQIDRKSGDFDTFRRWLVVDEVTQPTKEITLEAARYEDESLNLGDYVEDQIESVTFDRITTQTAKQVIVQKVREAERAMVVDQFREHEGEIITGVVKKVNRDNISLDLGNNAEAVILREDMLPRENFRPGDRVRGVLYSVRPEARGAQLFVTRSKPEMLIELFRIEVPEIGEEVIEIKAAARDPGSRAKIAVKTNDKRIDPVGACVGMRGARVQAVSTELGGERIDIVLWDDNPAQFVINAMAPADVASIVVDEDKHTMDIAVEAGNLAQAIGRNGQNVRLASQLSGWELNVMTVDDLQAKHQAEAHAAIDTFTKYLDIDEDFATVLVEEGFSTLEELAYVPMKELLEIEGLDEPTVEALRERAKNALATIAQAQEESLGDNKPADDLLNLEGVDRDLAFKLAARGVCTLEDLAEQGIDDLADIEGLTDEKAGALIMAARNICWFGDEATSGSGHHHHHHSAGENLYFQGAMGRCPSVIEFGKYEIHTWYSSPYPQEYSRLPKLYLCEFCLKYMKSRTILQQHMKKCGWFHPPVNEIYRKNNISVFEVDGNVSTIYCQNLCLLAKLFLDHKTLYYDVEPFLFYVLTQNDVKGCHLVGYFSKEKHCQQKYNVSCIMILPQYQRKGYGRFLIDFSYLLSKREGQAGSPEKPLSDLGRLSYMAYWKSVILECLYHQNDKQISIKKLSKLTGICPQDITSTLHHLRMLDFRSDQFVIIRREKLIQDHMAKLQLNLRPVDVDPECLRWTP

Would you please look over these solved cases?
COc1cc2c(c(OC)c1S(=O)(=O)Nc1noc3cccc(OC)c13)CCC2 [Example 106]	0.782 µM
CCc1ccc(OC)c(S(=O)(=O)Nc2noc3cc(-n4ccnn4)ccc23)c1 [Example 125]	24.5 µM
CCOc1ccc2onc(NS(=O)(=O)c3cc(CC)ccc3OC)c2c1 [Example 109]	1.21 µM

Query :: Look at this compound and give its reported IC50. COc1cccc2onc(NS(=O)(=O)c3cccc4c(C)ccnc34)c12 [Example 79]
Result :: 13.9 µM

Query :: Name the recorded IC50 for COc1ccc(Oc2ccccc2)cc1S(=O)(=O)Nc1noc2cccc(OC)c12 [Example 99] .
Result :: 2.1 µM

Query :: What measured IC50 goes with O=S(=O)(Nc1noc2cccc(Cl)c12)c1cccc2ccccc12 [Example 124] ?
Result :: 11 µM

Query :: Could you share which IC50 value was measured for O=S(=O)(Nc1noc2cccc(Cl)c12)c1c(F)cccc1F [Example 29] ?
Result :: > 125 µM

Query :: Which IC50 is reported for this compound? COc1cc2c(cc1S(=O)(=O)Nc1noc3ccc(C4CC4)cc13)CCCC2 [Example 205]
Result :: 0.115 µM

Query :: Entry COc1cc(COc2cccc(OC)c2S(=O)(=O)Nc2noc3cccc(OC)c23)ccn1 [Example 216] has what IC50?
Result :: 0.625 µM

###

target: MOZ-KAT6A (Homo sapiens, UniProt Q92794, A567V); assay: Acetyltransferase biochemical assay (AlphaScreen), KAT6A
measured_quantity: IC50 (µM)
The reply should contain only the number, in µM.

COCc1cccc(S(=O)(=O)Nc2noc3cccc(Cl)c23)c1 [Example 2]	94.6
COc1cccc(OC)c1S(=O)(=O)Nc1noc2cc(-n3nc(C)cc3C)ccc12 [Example 105]	2.9
COc1ccccc1S(=O)(=O)Nc1noc2ccccc12 [Example 58]	28.4
COc1ccc(S(=O)(=O)Nc2noc3ccc(C)cc23)c(OC)c1 [Example 170]	1.5
COc1ccc(-c2ccccc2)c(OC)c1S(=O)(=O)Nc1noc2cccc(OC)c12 [Example 96]	1.2
CCc1ccc(OC)c(S(=O)(=O)Nc2noc3cccc(-c4cnn(C)c4)c23)c1 [Example 202]	18.9
COCc1cc(OC)c2c(NS(=O)(=O)c3c(OC)cccc3OC)noc2c1I [Example 160]	1.05
COc1cccc(OCc2cnn(C)c2)c1S(=O)(=O)Nc1noc2cccc(OC)c12 [Example 221]	37.5
Cc1ccc(S(=O)(=O)Nc2noc3cccc(Cl)c23)cc1Cl [Example 31]	36.1
O=S(=O)(Nc1noc2ccccc12)c1ccc(-c2ccccc2)cc1 [Example 69]	42.9

Note: attention shifts to another entry.
Query :: Consider the compound shown here: COCc1cc2onc(NS(=O)(=O)c3ccc(OC)nc3)c2cc1C [Example 164] What is its recorded IC50?
Result :: 27.2

###

Item-by-item account of pIC50
Biological target: MOF-KAT8 (Homo sapiens, UniProt Q9H7Z6)
Sequence (Q9H7Z6 with tags, fused parts or gaps): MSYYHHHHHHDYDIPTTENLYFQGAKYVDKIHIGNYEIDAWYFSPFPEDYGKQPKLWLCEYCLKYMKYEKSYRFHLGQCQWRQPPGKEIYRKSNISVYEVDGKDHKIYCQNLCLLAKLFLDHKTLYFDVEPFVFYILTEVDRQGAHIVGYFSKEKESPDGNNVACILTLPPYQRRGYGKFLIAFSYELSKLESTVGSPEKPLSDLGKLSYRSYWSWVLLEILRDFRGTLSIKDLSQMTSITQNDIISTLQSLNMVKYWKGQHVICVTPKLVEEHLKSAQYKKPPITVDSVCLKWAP
# pIC50 is unitless: minus log10 of the molar concentration; print number only

COc1cc(COc2cccc(OC)c2S(=O)(=O)Nc2noc3cccc(OC)c23)ccn1 [Example 216]	4.95

Query :: Sample COc1cccc(OC)c1S(=O)(=O)Nc1noc2cc(-c3ncco3)c(C)cc12 [Example 102] — what was its pIC50?
Result :: 4.94

Query :: Sample O=S(=O)(Nc1noc2cccc(Cl)c12)c1ccccc1-c1cnco1 [Example 11] — what was its pIC50?
Result :: 4.45

###

Biological target: MOF-KAT8 (Homo sapiens)
Sequence (Q9H7Z6 with tags, fused parts or gaps): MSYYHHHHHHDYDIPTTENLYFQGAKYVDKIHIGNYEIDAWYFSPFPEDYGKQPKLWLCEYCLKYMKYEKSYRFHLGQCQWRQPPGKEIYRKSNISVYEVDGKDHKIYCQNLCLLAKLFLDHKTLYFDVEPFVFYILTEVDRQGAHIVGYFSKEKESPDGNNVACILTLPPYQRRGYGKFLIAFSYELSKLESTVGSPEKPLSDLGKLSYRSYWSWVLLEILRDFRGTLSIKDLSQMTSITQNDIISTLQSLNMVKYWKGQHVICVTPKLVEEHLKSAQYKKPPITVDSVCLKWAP
measured_quantity: IC50 (µM)
Form entry: value (µM) — number only.

COCc1cc(OC)c2c(NS(=O)(=O)c3c(OC)cccc3OC)noc2c1 [Example 173]	3.52
CCc1ccc(OC)c(S(=O)(=O)Nc2noc3ccc(C4CC4)cc23)c1 [Example 236]	3.68
COc1cc(CNC(C)=O)cc(OC)c1S(=O)(=O)Nc1noc2cccc(OC)c12 [Example 211]	29.5

Now for the compound whose IC50 we want.
Query :: What does the record list as IC50 for CS(=O)(=O)c1ccc(S(=O)(=O)Nc2noc3cccc(Cl)c23)cc1 [Example 21] ?
Result :: 39.7

###

molecular target: MOZ-KAT6A (Homo sapiens, UniProt Q92794, A567V); experiment: Acetyltransferase biochemical assay (AlphaScreen), KAT6A
As shown below, each of these compounds has a reported pIC50 value.
Recall that pIC50 is obtained by taking minus log10 of the concentration measured in molar.

O=S(=O)(Nc1noc2cccc(Cl)c12)c1ccccc1F	4.05
COc1ccc(Br)cc1S(=O)(=O)Nc1noc2cccc(Cl)c12	5.68
CCOCc1cc(OC)c2c(NS(=O)(=O)c3c(OC)cccc3OC)noc2c1	7.43
Cc1ccc(-n2cccn2)cc1S(=O)(=O)Nc1noc2cccc(Cl)c12	4.53
CCc1ccc(OC)c(S(=O)(=O)Nc2noc3ccc(C4CC4)c(OC)c23)c1	5.79

The record that follows has no pIC50 shown yet.
Query :: Look at this compound and give its reported pIC50. CCc1ccc(OC)c(S(=O)(=O)Nc2noc3cccc(OC)c23)c1OC
Result :: 5.21

###

Measured IC50 by item
molecular target: HBO-KAT7 (Homo sapiens, UniProt O95251)
Sequence (O95251 with tags, fused parts or gaps): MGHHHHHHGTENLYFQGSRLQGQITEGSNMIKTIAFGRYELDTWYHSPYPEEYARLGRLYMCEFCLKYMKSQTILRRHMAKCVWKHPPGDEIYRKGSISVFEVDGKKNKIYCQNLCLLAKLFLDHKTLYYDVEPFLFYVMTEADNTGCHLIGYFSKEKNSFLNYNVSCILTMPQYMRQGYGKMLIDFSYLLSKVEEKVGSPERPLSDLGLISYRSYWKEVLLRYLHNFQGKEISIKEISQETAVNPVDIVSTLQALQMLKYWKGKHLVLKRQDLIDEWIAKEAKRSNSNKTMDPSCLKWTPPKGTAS

Consider the reported IC50 for these compounds:
Cc1c(Cl)cccc1S(=O)(=O)Nc1noc2ccccc12 [Example 59]	> 125 µM
COc1cccc(-c2cc(OC)c3c(NS(=O)(=O)c4c(OC)cccc4OC)noc3c2)c1 [Example 177]	0.021 µM
COCc1cc2onc(NS(=O)(=O)c3ccc(OC)nc3)c2cc1C [Example 164]	61.6 µM
CCc1ccc(OC)c(S(=O)(=O)Nc2noc3cc(-c4cncnc4)ccc23)c1 [Example 197]	45.7 µM

Kindly consider the entry below.
Query :: Notebook entry, HBO-KAT7 (Homo sapiens, UniProt O95251) assay: IC50 of O=S(=O)(Nc1noc2cccc(Cl)c12)c1ccc(OC(F)F)cc1 [Example 34] = ?
Result :: 31.5 µM

###

Biological target: MOF-KAT8 (Homo sapiens)
Sequence (Q9H7Z6 with tags, fused parts or gaps): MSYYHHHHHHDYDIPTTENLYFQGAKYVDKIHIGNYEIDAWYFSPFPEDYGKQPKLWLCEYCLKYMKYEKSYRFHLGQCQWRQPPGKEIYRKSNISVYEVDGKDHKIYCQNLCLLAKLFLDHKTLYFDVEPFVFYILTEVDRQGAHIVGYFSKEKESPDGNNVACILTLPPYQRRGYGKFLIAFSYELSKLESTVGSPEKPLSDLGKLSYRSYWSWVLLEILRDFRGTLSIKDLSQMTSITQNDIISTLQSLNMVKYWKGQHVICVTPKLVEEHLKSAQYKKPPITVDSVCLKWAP
measured_quantity: pIC50
Scale note: pIC50 = -log10(concentration in M).

Some compounds with known pIC50 results, for comparison:
COc1cccc(OC)c1S(=O)(=O)Nc1noc2cccc(N)c12	3.95
COCc1cc2onc(NS(=O)(=O)c3ccc(OC)cc3OC)c2cc1C	5.53
CCc1ccc(OC)c(S(=O)(=O)Nc2noc3cccc(OC)c23)c1OC	4.22
COCc1cc(OC)c2c(NS(=O)(=O)c3c(OC)cccc3OC)noc2c1Cl	3.93
COc1cccc(OC)c1S(=O)(=O)Nc1noc2cc(C(C)OC)cc(OC)c12 (stereo not drawn)	4.02

Query :: Record COc1cccc(OCC(N)=O)c1S(=O)(=O)Nc1noc2cccc(OC)c12 : what is its pIC50 with MOF-KAT8 (Homo sapiens)?
Result :: 4.16

Query :: Lab note: need pIC50 with MOF-KAT8 (Homo sapiens) for entry O=S(=O)(Nc1noc2cccc(Cl)c12)c1ccccc1 , please look it up.
Result :: 4.46

Query :: State its pIC50 on MOF-KAT8 (Homo sapiens): COc1ccc(S(=O)(=O)Nc2noc3cc(C(N)=O)c(C)cc23)c2ncccc12
Result :: 5.19

Query :: Under MOF-KAT8 (Homo sapiens): pIC50 value of COc1cc2c(cc1S(=O)(=O)Nc1noc3ccc(C4CC4)cc13)CCCC2 ?
Result :: 5.46

Query :: Lookup: pIC50 / MOF-KAT8 (Homo sapiens) / COc1cccc2onc(NS(=O)(=O)c3cccc4ccoc34)c12
Result :: 5.03

Query :: API: value(readout=pIC50, system=MOF-KAT8 (Homo sapiens)) for record CCOc1ccc2onc(NS(=O)(=O)c3cc(CC)ccc3OC)c2c1
Result :: 5.04

Query :: Item: COc1ccc(-c2ccccc2)c(OC)c1S(=O)(=O)Nc1noc2cccc(OC)c12 Test system: MOF-KAT8 (Homo sapiens) Read-out: pIC50 Value: ?
Result :: 4.27

Query :: Look up pIC50 with MOF-KAT8 (Homo sapiens) for this compound: CCc1ccc(OC)c(S(=O)(=O)Nc2noc3ccc(OC)cc23)c1
Result :: 5.49

Query :: What reported pIC50 corresponds to COc1cc(-c2ccccc2)cc(OC)c1S(=O)(=O)Nc1noc2cccc(OC)c12 on MOF-KAT8 (Homo sapiens)?
Result :: 5.19

Query :: Identify the measured pIC50 of Cc1ncc(-c2ccc(C)c(S(=O)(=O)Nc3noc4cccc(Cl)c34)c2)o1 for MOF-KAT8 (Homo sapiens).
Result :: 4.20

Query :: MOF-KAT8 (Homo sapiens) / pIC50 / CCc1ccc(OC)c(S(=O)(=O)Nc2noc3cccc(Cl)c23)c1 : value?
Result :: 5.59

Query :: What reported pIC50 corresponds to COCc1cc(OC)c2c(NS(=O)(=O)c3ccc(OC)c4cccnc34)noc2c1 on MOF-KAT8 (Homo sapiens)?
Result :: 4.97
